Value source: the METLIN SMRT retention time set (Domingo-Almenara et al. 2019)

# MEASUREMENT NOTES: gradient 5% acetonitrile 3 min, to 50% in 2 min, to 85% in 15 min, held 3 min, 100 µL/min
# CONDITION DESCRIPTION: column: Zorbax Extend-C18 2.1 x 50 mm; eluents: water / acetonitrile, 0.1% formic acid
OBSERVED PROPERTY: RP-LC retention time (s)

Below: 3 compounds and their reported RP-LC retention time.
1. Cc1noc(C2CN(C(=O)Nc3ccc(C)c(Cl)c3)CC23CCOCC3)n1 (stereo not given) ... 816
2. CCCCOc1ccc(C(=O)Nc2nc(-c3ccc(OC)c(C)c3)cs2)cc1 ... 1240
3. CCc1ccc(OCc2nc(CCN(C)C(=O)Cc3cccs3)no2)cc1 ... 1000

a. COc1ccc(Cn2c(C)c(CNCc3ccco3)c(C(=O)O)c2C)cc1
b. COc1ccc(C2C(C)C(=O)C(C)C(c3ccc(OC)cc3)N2N=O)cc1 (stereo not given)
Between a and b , which one shows the smaller RP-LC retention time number? Mark your selection by writing its label.
a
